Molecular target: T1, mouse EL (mouse, UniProt Q9WVG5 21-500)
T1 sequence (looked up): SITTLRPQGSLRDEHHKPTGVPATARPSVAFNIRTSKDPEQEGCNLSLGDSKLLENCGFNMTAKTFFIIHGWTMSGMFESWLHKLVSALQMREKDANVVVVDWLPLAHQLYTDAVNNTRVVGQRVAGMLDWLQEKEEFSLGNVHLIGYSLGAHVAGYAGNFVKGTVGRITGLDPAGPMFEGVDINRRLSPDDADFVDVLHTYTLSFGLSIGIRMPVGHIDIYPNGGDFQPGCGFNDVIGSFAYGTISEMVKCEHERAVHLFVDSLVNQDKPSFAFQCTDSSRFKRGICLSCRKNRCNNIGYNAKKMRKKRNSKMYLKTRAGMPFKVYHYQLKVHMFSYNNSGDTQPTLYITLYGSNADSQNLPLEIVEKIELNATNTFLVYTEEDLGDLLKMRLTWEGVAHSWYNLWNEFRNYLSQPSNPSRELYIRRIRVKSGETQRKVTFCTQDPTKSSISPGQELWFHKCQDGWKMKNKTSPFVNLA
Assay: cell-based or functional assay
MEASUREMENT NAME: Neutralizing activity IC50 (nM)
Just the number please, in nM, no unit attached.

Request: Return Neutralizing activity IC50 (reported value) for this binder: h16F6-S3 (antibody, V domains shown) VH: QVQLVQSGAEVKKPGASVKVSCKASGYTFTTYWIAWVRQAPGQGLEWMGEILPGSAKTKYNKKFKGRVTMTRDTSTSTVYMELSSLRSEDTAVYYCAVYDYGADYWGQGTTVTVSS VL: DIQMTQSPSSLSASVGDRVTITCKASQDVYTAVAWYQQKPGKSPKLLIYSASYRFTGVPSRFTGSGAGTDFTLTISSLQPEDFATYYCQQHYSIPRTFGGGTKVEIK
Result: 3.3
